Target: NR4A1 protein (ligand-binding domain: LBD) (Homo sapiens, UniProt P22736)
Sequence (P22736 360-595 limits assumed): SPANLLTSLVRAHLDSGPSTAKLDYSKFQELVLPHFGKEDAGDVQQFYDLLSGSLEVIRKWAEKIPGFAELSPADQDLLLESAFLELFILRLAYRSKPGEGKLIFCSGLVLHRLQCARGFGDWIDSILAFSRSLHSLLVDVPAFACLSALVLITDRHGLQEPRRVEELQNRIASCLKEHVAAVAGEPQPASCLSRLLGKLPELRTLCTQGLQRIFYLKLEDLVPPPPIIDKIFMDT
Assay: Isothermal titration calorimetry (ITC) binding assay;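 further: ligand titrated into 20 µmol/L NR4A1 LBD in sodium phosphate buffer pH 7.4 with glycerol and ethanol, thirty injections, heat flow corrected for ligand-into-buffer dilution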
Conditions: 25 °C; read-out: ITC assay Kd1
We'd kindly ask you to apply these Kd classes: bottom end (below 80 nM), midrange (80 nM to below 400 nM), top end (400 nM or more)

{"columns": ["Compound", "Cat"],
 "data": [
  ["O=c1cc(-c2ccc(O)cc2)oc2cc(O)ccc12 [7,4’-Dihydroxyflavone]", "top end"],
  ["O=c1cc(-c2ccccc2)oc2ccc(O)cc12 [6-Hydroxyflavone]", "bottom end"],
  ["O=c1c(O)c(-c2ccccc2)oc2ccc(O)cc12 [3,6-Dihydroxyflavone]", "top end"],
  ["O=c1cc(-c2ccccc2)oc2c(O)c(O)ccc12 [7,8-Dihydroxyflavone]", "bottom end"],
  ["O=c1c(O)c(-c2ccc(O)cc2)oc2cc(O)cc(O)c12 [3,5,7,4′-Tetrahydroxyflavone]", "top end"],
  ["O=c1c(O)c(-c2ccccc2)oc2cc(O)ccc12 [3,7-Dihydroxyflavone]", "midrange"],
  ["O=c1cc(-c2ccccc2)oc2cc(O)cc(O)c12 [5,7 Dihydroxyflavone]", "bottom end"],
  ["O=c1cc(-c2ccc(O)cc2)oc2cc(O)cc(O)c12 [5,7,4′-Trihydroxyflavone (Apigenin), 5,7,4′-Trihydroxyflavone]", "top end"],
  ["O=c1cc(-c2cccc(O)c2)oc2ccccc12 [3′-Hydroxyflavone]", "midrange"],
  ["O=c1cc(-c2ccc(O)cc2)oc2ccccc12 [4′-Hydroxyflavone]", "midrange"],
  ["O=c1cc(-c2ccc(O)c(O)c2)oc2cc(O)cc(O)c12 [5,7,3′4′-Tetrahydroxyflavone (Luteolin), 5,7,3′4′-Tetrahydroxyflavone]", "bottom end"],
  ["O=c1cc(-c2ccccc2)oc2ccccc12", "bottom end"],
  ["O=c1cc(-c2ccc(O)c(O)c2)oc2ccccc12 [3′,4′-Dihydroxyflavone]", "top end"],
  ["O=c1cc(-c2ccccc2)oc2cc(O)c(O)c(O)c12 [5,6,7 -Trihydroxyflavone (Baicalein), 5,6,7-Trihydroxyflavone]", "midrange"],
  ["O=c1cc(-c2cccc(O)c2)oc2cc(O)ccc12 [7,3′-Dihydroxyflavone]", "midrange"],
  ["O=c1cc(-c2ccccc2)oc2cccc(O)c12 [5-Hydroxyflavone]", "top end"],
  ["O=c1c(O)c(-c2ccccc2)oc2cc(O)cc(O)c12 [3,5,7 -Trihydroxyflavone (Galangin), 3,5,7-Trihydroxyflavone]", "bottom end"],
  ["O=c1c(O)c(-c2ccccc2)oc2ccccc12 [3-Hydroxyflavone]", "bottom end"],
  ["O=c1c(O)c(-c2ccc(O)c(O)c2)oc2cc(O)cc(O)c12", "midrange"]
]}

----------
Biological target: GAL4-NR4A1 (Homo sapiens)
Sequence (P22736 360-595 limits assumed): as above
Experiment: NR4A1-dependent transactivation, GAL4-NR4A1/UAS-luc, Rh30 cells
Format: cell-based
Design: expressed in transfected cells; host or cells: Rh30 rhabdomyosarcoma cells
Conditions: 50 µM
Measured parameter: effect on NR4A1-dependent transactivation

{"columns": ["Compound", "Result"],
 "data": [
  ["O=c1c(O)c(-c2ccccc2)oc2cc(O)cc(O)c12 [3,5,7 -Trihydroxyflavone (Galangin), 3,5,7-Trihydroxyflavone]", "potent inhibition"],
  ["O=c1c(O)c(-c2ccccc2)oc2ccc(O)cc12 [3,6-Dihydroxyflavone]", "potent inhibition"],
  ["O=c1c(O)c(-c2ccccc2)oc2cc(O)ccc12 [3,7-Dihydroxyflavone]", "potent inhibition"]
]}
